B1: library; a variant is named by its letters at N, in order (parent)
chain: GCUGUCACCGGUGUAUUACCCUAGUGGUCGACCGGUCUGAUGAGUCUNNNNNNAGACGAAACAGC

Variants of: B1
Assay: FACS-Seq fitted mean relative fluorescence mCherry/BFP without ligand (log10 relative fluorescence); ligand: hypoxanthine (xanthine aptamer); higher = higher reporter protein expression
Details: HEK293T, ligand present: no
assay.readout: FACS-Seq fitted mean (log10)
Provide a numeric answer; units are not to be included.

{"change": "AUGACG", "endpoint.value": 0.0397}
{"change": "UGAGCG", "endpoint.value": 0.307}
{"change": "GAACCG", "endpoint.value": 0.156}

Query: Using the record for AAGAGG , report its FACS-Seq fitted mean (log10).
Result: -0.185

Query: Which FACS-Seq fitted mean (log10) value is on record for GGGGGU ?
Result: 0.334

Query: Which FACS-Seq fitted mean (log10) is listed for GCCGGU ?
Result: 0.478

Query: # get_value(readout='FACS-Seq fitted mean (log10)', item= GCGUUG )
Result: 0.142

Query: Record request: FACS-Seq fitted mean (log10) value, item ACGGAG
Result: -0.0823

Query: Can you share its FACS-Seq fitted mean (log10)? I mean this variant: GCACUU
Result: 0.852

Query: I would be grateful if you could share the reported FACS-Seq fitted mean (log10) for GAGAGG .
Result: 0.00193

Query: Reported FACS-Seq fitted mean (log10) for AAAAAA : what is it?
Result: 0.738

Query: What FACS-Seq fitted mean (log10) value was documented for this variant, GUUCGU ?
Result: 0.476

Query: Recorded FACS-Seq fitted mean (log10) of UACUAA , please.
Result: 0.00308

Query: Requested read-out: FACS-Seq fitted mean (log10). Entry: ACCAAC
Result: 0.0939
